# System: L1210 cells
# test.description: Dark cytotoxicity in L1210 cells (plates wrapped in aluminum foil)
# Assay type: cell-based
# condition.parameters: L1210 cells, absence of light
measurement.name: LD20dark (ng/mL)
I only need the number, in ng/mL, no unit after it.

Consider the following illustrative entries.
* Cc1cc(C)c(-c2c3nc(c(-c4c(C)cc(C)cc4C)c4ccc([nH]4)c(-c4c(C)cc(C)cc4C)c4nc(c(-c5c(C)cc(C)cc5C)c5ccc2[nH]5)C(O)C4O)C=C3)c(C)c1 (centres unmarked) | 7500
* Oc1ccc(-c2c3nc(c(-c4ccccc4)c4ccc([nH]4)c(-c4ccccc4)c4nc(c(-c5ccccc5)c5ccc2[nH]5)C=C4)C(O)C3O)cc1 (centres unmarked) | 2000
* COc1cc(OC)cc(-c2c3nc(c(-c4cc(OC)cc(OC)c4)c4ccc([nH]4)c(-c4cc(OC)cc(OC)c4)c4nc(c(-c5cc(OC)cc(OC)c5)c5ccc2[nH]5)C(O)C4O)C=C3)c1 (centres unmarked) | 5000
* Oc1cccc(-c2c3nc(c(-c4cccc(O)c4)c4ccc([nH]4)c(-c4cccc(O)c4)c4nc(c(-c5cccc(O)c5)c5ccc2[nH]5)C(O)C4O)C=C3)c1 (centres unmarked) | 10000

# ---- query compound ----
# LD20dark of OC1c2nc(c(-c3ccccc3)c3ccc([nH]3)c(-c3ccccc3)c3nc(c(-c4ccccc4)c4ccc([nH]4)c2-c2ccccc2)C(O)C3O)C1O (centres unmarked) = 2500
